The next entries give measured MIC for Proteus vulgaris ATCC 881.
READOUT_LABEL: MIC (µg/mL)

CO[C@H]1/C=C/O[C@@]2(C)Oc3c(C)c(O)c4c(c3C2=O)C(=O)C(N2CCOCC2)=C(NC(=O)/C(C)=C\C=C\[C@H](C)[C@H](O)[C@@H](C)[C@@H](O)[C@@H](C)[C@H](OC(=O)CO)[C@@H]1C)C4=O [Compound C15, 36-Hydroxy-3-(4-morpholinyl)rifamycin S]    8
CO[C@H]1/C=C/O[C@@]2(C)Oc3c(C)c(O)c4c(c3C2=O)C(=O)C=C(NC(=O)/C(C)=C\C=C\[C@H](C)[C@H](O)[C@@H](C)[C@@H](O)[C@@H](C)[C@H](OC(=O)COC(C)=O)[C@@H]1C)C4=O    8
CO[C@H]1/C=C/O[C@@]2(C)Oc3c(C)c(O)c4c(c3C2=O)C(=O)C(N2CCOCC2)=C(NC(=O)/C(C)=C\C=C\[C@H](C)[C@H](O)[C@@H](C)[C@@H](O)[C@@H](C)[C@H](OC(=O)CBr)[C@@H]1C)C4=O    8
CCn1cc(C(=O)OCC(=O)O[C@H]2[C@H](C)[C@H](O)[C@H](C)[C@@H](O)[C@@H](C)/C=C/C=C(/C)C(=O)Nc3c(C=NN4CCN(C)CC4)c(O)c4c5c(c(C)c(O)c4c3O)O[C@](C)(O/C=C/[C@H](OC)[C@H]2C)C5=O)c(=O)c2cc(F)c(N3CCN(C)CC3)cc21    64
